Target: Kallikrein (Homo sapiens)
Sequence (P03952 391-638 limits assumed): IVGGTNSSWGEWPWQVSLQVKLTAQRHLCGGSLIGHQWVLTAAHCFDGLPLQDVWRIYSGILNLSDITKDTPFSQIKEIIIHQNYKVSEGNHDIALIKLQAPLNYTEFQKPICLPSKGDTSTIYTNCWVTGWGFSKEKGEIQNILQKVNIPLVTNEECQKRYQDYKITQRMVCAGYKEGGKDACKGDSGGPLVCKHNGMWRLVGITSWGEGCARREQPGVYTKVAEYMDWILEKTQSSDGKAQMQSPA
Sequence (P03952 20-390 limits assumed): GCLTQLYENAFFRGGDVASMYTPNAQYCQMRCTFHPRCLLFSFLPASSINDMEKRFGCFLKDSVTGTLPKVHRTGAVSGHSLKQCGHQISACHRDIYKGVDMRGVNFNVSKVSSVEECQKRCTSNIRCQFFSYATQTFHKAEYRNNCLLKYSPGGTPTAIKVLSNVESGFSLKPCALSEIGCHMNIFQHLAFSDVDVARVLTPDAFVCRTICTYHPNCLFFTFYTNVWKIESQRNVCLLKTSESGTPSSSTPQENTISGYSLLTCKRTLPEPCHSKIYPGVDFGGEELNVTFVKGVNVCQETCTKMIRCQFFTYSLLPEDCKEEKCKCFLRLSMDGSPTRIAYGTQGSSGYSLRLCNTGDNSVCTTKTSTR
Measurement Label: IC50

>>> reading("O=C(Nc1ccc(C(=O)Nc2ccc(Cl)cc2)c(O)c1)c1ccc(-c2nc3cc(Cl)c(Cl)cc3[nH]2)cc1")
"> 150 µM"

====

Biological target: human neurotrypsin (Homo sapiens, UniProt P56730)
Sequence (P56730 21-875): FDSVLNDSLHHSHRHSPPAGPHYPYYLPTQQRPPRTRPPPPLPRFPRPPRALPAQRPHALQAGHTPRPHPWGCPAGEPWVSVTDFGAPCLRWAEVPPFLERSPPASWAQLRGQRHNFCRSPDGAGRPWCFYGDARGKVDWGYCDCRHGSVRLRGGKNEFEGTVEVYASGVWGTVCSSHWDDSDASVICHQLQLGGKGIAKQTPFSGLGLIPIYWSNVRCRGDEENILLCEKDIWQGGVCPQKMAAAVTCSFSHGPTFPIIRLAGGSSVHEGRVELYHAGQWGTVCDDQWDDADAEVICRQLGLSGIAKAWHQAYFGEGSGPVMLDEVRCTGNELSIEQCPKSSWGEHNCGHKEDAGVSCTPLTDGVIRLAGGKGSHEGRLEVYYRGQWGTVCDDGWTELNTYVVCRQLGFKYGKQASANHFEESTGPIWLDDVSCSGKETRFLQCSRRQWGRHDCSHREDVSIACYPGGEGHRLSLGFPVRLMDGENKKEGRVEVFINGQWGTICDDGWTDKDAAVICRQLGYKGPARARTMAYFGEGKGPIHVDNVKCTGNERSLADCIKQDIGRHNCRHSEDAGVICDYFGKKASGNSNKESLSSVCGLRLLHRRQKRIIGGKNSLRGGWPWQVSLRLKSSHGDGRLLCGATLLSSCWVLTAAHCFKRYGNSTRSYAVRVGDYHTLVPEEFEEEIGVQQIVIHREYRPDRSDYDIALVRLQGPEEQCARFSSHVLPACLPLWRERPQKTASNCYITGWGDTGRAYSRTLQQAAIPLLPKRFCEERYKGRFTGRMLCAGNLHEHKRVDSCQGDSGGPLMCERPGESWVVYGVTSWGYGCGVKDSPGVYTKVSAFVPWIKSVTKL
Assay: Determination of IC50 for human neurotrypsin
Assay type: biochemical
Details: table of all 14 examples; read-out: Neurotrypsin IC50
In this section, each of the compounds is paired with its reported IC50.
Measurement Label: IC50 (µM)

>>> reading("O=C(Nc1ccc(C(=O)Nc2ccc(Cl)cc2F)c(O)c1)c1ccc(-c2nc3cc(Cl)c(Cl)cc3[nH]2)cc1")
1.9
>>> reading("O=C(Nc1ccc(C(=O)Nc2ccc(Cl)cc2)c(O)c1)c1ccc(-c2nc3cc(Cl)c(Cl)cc3[nH]2)cc1")
0.4
>>> reading("O=C(Nc1ccc(C(=O)Nc2ccc(Cl)cc2)c(O)c1)c1ccc(-c2ccc(F)cc2)cc1")
7.6
>>> reading("O=C(Nc1ccc(C(=O)Nc2ccc(Cl)cc2)c(O)c1)c1ccc2cc(Cl)c(Cl)cc2n1")
26.7
>>> reading("CCCCc1ccc(NC(=O)c2ccc(NC(=O)c3ccc(-c4nc5cc(Cl)c(Cl)cc5[nH]4)cc3)cc2O)cc1")
1.7
>>> reading("O=C(Nc1ccc(C(=O)Nc2ccc(Cl)cc2)c(O)c1)c1ccc(-c2ccc(F)cc2)s1")
3.4
>>> reading("CC(C)CN(CC(C)C)C(=O)c1ccc(NC(=O)c2ccc(-c3nc4cc(Cl)c(Cl)cc4[nH]3)cc2)cc1O")
55.1
>>> reading("O=C(Nc1ccc(C(=O)Nc2ccc(F)cc2F)c(O)c1)c1ccc(-c2nc3cc(Cl)c(Cl)cc3[nH]2)cc1")
1.1
>>> reading("O=C(Nc1ccc(Cl)cc1)c1ccc(NC(=O)c2[nH]c3ccc(Cl)cc3c2-c2ccccc2)cc1O")
10.8
>>> reading("O=C(Nc1ccc(C(=O)Nc2ccc(Cl)cc2)c(O)c1)c1ccc(Oc2ccc(Cl)c(Cl)c2)cc1")
13.9
>>> reading("O=C(Nc1ccccc1F)c1ccc(NC(=O)c2[nH]c3ccc(Cl)cc3c2-c2ccccc2)cc1O")
32.8
>>> reading("O=C(Nc1ccc(Cl)cc1)c1ccc(NC(=O)c2sc3ccccc3c2Cl)cc1O")
55.5
